System: Hep3B
EXPERIMENT: relative cell viability (CellTiter-Glo), compound plus cabozantinib, relative to the cabozantinib arm (arm median 1.05; reference not stated) (fraction); higher = more viable cells (less growth inhibition)
SETTINGS: cabozantinib 2 µM; 4 days
Whole data set: some 1,900 compounds, median “relative cell viability (CellTiter-Glo), compound plus cabozantinib, relative to the cabozantinib arm (arm median 1.05; reference not stated)” near 1.1, cut for the lowest 2% near 0.15. Only a selection was taken, and the lowest values are over-represented in it overall.

{"columns": ["COMPOUND", "relative cell viability"],
 "data": [
  ["CC1(C)CC(O)CC(C)(C)N1[O]", 1.03],
  ["CC(=O)O[C@H]1C[C@@H]2CC[C@@H]3[C@H](CC[C@@]4(C)[C@H]3C[C@H]([N+]3(C)CCCCC3)[C@@H]4OC(C)=O)[C@@]2(C)C[C@@H]1[N+]1(C)CCCCC1 [Pancuronium dibromide]", 1.06],
  ["CC(C)=CCC[C@]1(C)C=Cc2c(O)c3c(c(CC=C(C)C)c2O1)O[C@]12C(=C[C@@H]4C[C@H]1C(C)(C)O[C@@]2(C/C=C(/C)C(=O)O)C4=O)C3=O", 0.118],
  ["C[C@H]1CCC/C=C/[C@@H]2C[C@H](O)C[C@H]2[C@H](O)/C=C/C(=O)O1", 0.105]
]}
